Biological target: T1, rat MuSK (rat, UniProt Q62838 22-494, limits assumed)
T1 construct: Coated on Biacore chip (200RU) or ELISA plate
T1 sequence (looked up): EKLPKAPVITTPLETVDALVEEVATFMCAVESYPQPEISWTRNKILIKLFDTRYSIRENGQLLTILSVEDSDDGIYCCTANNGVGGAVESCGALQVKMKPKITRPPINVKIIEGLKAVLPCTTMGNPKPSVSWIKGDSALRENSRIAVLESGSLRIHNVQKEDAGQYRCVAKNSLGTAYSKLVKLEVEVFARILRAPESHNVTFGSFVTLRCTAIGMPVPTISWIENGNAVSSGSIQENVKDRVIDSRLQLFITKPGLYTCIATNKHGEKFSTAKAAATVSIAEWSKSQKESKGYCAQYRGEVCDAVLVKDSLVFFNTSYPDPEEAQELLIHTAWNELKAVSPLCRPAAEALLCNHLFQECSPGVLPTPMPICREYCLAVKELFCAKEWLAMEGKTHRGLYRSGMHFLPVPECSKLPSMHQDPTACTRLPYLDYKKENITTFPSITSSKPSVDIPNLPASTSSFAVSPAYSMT
Test: Biacore, MuSK on chip, association pH 7.4, dissociation pH 5.5
The following binders are shown together with reported R0 values.
Please respond with the number in RU and leave the unit unwritten.

Observe how each entry below is paired with its result.
Binder	Units label	R0
3B2g1m2 (antibody, human IgG1, V domains shown, human IgG1-LALA backbone; produced in HEK293 cells) VH: EVQLLESGGGLVQPGGSLRLSCAASGFTFSDYGMSWVRQAPGKGLEWVSAIPGSGGSTYYKESVKGRFTISRDNSKNTLYLQMNSLRAEDTAVYYCAKRSGRIAFGALDAWGQGTLVTVSS VL: QTVVTQEPSFSVSPGGTVTLTCGLSSGSVTSSNYPDWYQQTPGQAPRTLIYSTDSRHSGVPDRFSGSILGNKAALTITGAQADDESDYYCGLYMYSGSKNYVFGGGTKLTVL	RU	136
3B2g2m2 (antibody, human IgG1, V domains shown, human IgG1-LALA backbone; produced in HEK293 cells) VH: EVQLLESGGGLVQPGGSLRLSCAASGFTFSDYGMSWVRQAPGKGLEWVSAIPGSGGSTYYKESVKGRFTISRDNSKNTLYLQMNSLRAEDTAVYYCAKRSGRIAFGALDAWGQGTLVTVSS VL: QTVVTQEPSFSVSPGGTVTLTCGLSSGSVTSSNYPDWYQQTPGQAPRTLIYSTDSRHSGVPDRFSGSILGNKAALTITGAQADDESDYYCGLYSYSGSKNYVFGGGTKLTVL	RU	145

What does the record list as R0 for 3B2g2m4 (antibody, human IgG1, V domains shown, human IgG1-LALA backbone; produced in HEK293 cells) VH: EVQLLESGGGLVQPGGSLRLSCAASGFTFSDYGMSWVRQAPGKGLEWVSAIPWQGGSTYYKESVKGRFTISRDNSKNTLYLQMNSLRAEDTAVYYCAKRSGRIAFGALDAWGQGTLVTVSS VL: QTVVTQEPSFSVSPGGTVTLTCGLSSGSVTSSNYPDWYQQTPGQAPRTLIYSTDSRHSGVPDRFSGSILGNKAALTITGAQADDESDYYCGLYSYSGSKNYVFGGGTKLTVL ? 172

I'd like to know its R0. The binder in question is 3B2g1m1 (antibody, human IgG1, V domains shown, human IgG1-LALA backbone; produced in HEK293 cells) VH: EVQLLESGGGLVQPGGSLRLSCAASGFTFSDYGMSWVRQAPGKGLEWVSAIPWSGGSTYYKESVKGRFTISRDNSKNTLYLQMNSLRAEDTAVYYCAKRSGRIAFGALDAWGQGTLVTVSS VL: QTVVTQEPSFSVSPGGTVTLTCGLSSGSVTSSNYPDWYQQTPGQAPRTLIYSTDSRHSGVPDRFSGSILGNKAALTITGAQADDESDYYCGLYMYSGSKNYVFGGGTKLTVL 166

Given the binder 3B2g2m1 (antibody, human IgG1, V domains shown, human IgG1-LALA backbone; produced in HEK293 cells; also called MuSK agonist antibody 3B2g2m1; MuSK-mAb 3B2g2m1) VH: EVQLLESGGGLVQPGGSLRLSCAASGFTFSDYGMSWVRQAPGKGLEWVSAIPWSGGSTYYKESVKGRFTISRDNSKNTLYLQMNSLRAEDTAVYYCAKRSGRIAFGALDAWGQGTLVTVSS VL: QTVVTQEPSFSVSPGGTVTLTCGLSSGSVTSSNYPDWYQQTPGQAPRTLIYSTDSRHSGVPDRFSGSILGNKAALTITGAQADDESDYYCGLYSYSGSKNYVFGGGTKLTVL , what is its reported R0? 174
